Cited source: patent US20130017265A1

Tested on: LNCaP cells
Assay: MTT cytotoxicity assay, LNCaP cells
Format: cell-based, human
Details: MTT; 12 hours treatment, further 48 hours; [Pt] = 25 * [Doce]
Protocol: The ability of the targeted drug releasing construct nanoparticles to promote cell death was determined using the MTT assay using human prostate cancer LNCaP and PC3 cells and compared against the standard compounds cisplatin and the Pt(IV)-monosuccinate prodrug. Human prostate cancer LNCaP and PC3 cells were obtained from the ATCC. […] Cytotoxic activity of the constructs was evaluated using the MTT assay. […] All platinum constructs were quantified by atomic absorption spectroscopy. […]
pIC50: −log10 of the molar value.
Endpoint Label: pIC50

Incoming: Which pIC50 is reported for this compound? N.N.[Cl][Pt][Cl] [Cisplatin]
Outgoing: < 5.30
